Target: Rho-A (Homo sapiens (Human), UniProt P61586)
Sequence (P61586 whole entry): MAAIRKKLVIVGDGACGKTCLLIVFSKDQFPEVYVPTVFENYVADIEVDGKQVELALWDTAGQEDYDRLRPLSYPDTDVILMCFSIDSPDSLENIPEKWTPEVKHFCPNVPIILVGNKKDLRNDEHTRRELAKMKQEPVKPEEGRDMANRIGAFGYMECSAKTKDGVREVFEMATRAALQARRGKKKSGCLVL
Test: Rho inhibition assay (labeled GTP)
Assay type: binding
Settings: read-out: Rho-A % Inh.
Below: a set of entries, each annotated with reported inhibition at 20 µM.
endpoint: inhibition at 20 µM

>>> result("Cc1sc2c(O)nc(-c3ccccn3)nc2c1Br [drawing 3840]")
"51 to 75%"
>>> result("O=C(c1csc2c(O)nc(-c3ccccn3)nc12)N1CCNC(c2ccccc2Cl)C1 (centres unmarked) [drawing 3695]")
"76 to 100%"
>>> result("COc1c(O)nc(-c2ccccn2)nc1Oc1cccc(C(F)(F)F)c1 [drawing 3875]")
"76 to 100%"
>>> result("O=C(c1csc2c(O)nc(-c3ccccn3)nc12)N1CCOC(c2cccc(Cl)c2)C1 (centres unmarked) [drawing 3659]")
"51 to 75%"
>>> result("Oc1nc(-c2ccccn2)nc2c(C3CCC3)csc12 [drawing 3797]")
"76 to 100%"

====

Below: a set of entries, each annotated with reported inhibition at 20 µM.
Molecular target: KRas G12D/Q61H double mutant (Homo sapiens (Human), UniProt P01116, G12D/Q61H)
Sequence (P01116-2 other isoform, or with tags, fused parts or gaps G12D/Q61H): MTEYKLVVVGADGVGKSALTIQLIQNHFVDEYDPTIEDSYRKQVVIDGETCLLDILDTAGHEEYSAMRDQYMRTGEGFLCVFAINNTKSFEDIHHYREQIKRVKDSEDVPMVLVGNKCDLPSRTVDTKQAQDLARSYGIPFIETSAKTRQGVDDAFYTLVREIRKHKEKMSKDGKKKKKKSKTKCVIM
Assay: Ras GTP binding domain inhibition assay (labeled GTP)
Conditions: at 20 μM; read-out: KRas G12D Q61H % Inh.
endpoint: inhibition at 20 µM

>>> result("Cn1cnc(-c2nc(O)c3c(-c4ccccc4)c(-c4ccc(CNC(=O)OC(C)(C)C)cc4)sc3n2)c1 [drawing 3855]")
"1 to 25%"
>>> result("Cc1ccc(-c2csc3c(O)nc(-c4ccccn4)nc23)cc1 [drawing 3878]")
"1 to 25%"
>>> result("COCCCCN(C)C(=O)c1csc2nc(-c3ccccn3)nc(N3CCOCC3)c12 [drawing 3679]")
"1 to 25%"
>>> result("Nc1cccc(-c2csc3c(O)nc(-c4ccccn4)nc23)n1 [drawing 3832]")
"51 to 75%"

====

System: MIA-PACA2 pancreatic cancer cell lines
Assay: Cell proliferation assay, alternate assay conditions (DAPI fluorescence)
Assay type: cell-based
Conditions: Homo sapiens, MIA PaCa-2; MIA-PACA2, same assay as the % inhibition (alternate conditions)
endpoint: IC50

>>> result("COCCNc1nc(-c2nccn2C)nc2sc(-c3ccccc3)c(-c3ccccc3Cl)c12 [drawing 1882]")
"> 1000 nM"
>>> result("COCCNc1nc(-c2nccn2C)nc2sc(C)c(-c3ccccc3)c12 [drawing 1886]")
"501 to 1000 nM"
>>> result("COCCNc1nc(-c2nccn2C)nc2sc(-c3ccccc3Cl)c(-c3ccccc3)c12 [drawing 1883]")
"501 to 1000 nM"
>>> result("Oc1nc(-c2ccncn2)nc2c(-c3cccc(C(F)(F)F)c3)csc12 [drawing 1909]")
"> 1000 nM"

====

Target: KRas wild type (Homo sapiens (Human))
Sequence (P01116-2 other isoform, or with tags, fused parts or gaps): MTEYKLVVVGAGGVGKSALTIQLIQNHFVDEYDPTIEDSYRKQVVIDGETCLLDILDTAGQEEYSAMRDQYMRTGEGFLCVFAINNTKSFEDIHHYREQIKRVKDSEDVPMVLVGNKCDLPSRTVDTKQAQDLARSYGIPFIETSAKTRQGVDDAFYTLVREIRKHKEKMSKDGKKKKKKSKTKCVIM
Test: Ras GTP binding domain inhibition assay (labeled GTP)
Details: 20 μM compound; read-out: % Inhibition at 20 μM KRas wild type
endpoint: inhibition at 20 µM

>>> result("Oc1nc(-c2ccccn2)nc2c(-c3ccccn3)csc12 [drawing 2896]")
"51 to 75%"
>>> result("c1ccc(-c2nc(NCC3CCCO3)c3ccsc3n2)nc1 (centres unmarked) [drawing 2705]")
"25 to 50%"
>>> result("Oc1nc(-c2ccccn2)nc2c(-c3cc(F)cc(F)c3)csc12 [drawing 2900]")
"25 to 50%"
>>> result("Nc1nc(-c2ccccn2)nc2ccsc12 [drawing 2834]")
"1 to 25%"
>>> result("Cc1cnc(-c2ccccn2)nc1NC(=O)C1CCCc2cc(C#N)ccc21 (centres unmarked) [drawing 2827]")
"51 to 75%"

====

Target: KRas G12D mutant protein (Homo sapiens (Human), UniProt P01116, G12D)
Sequence (P01116-2 other isoform, or with tags, fused parts or gaps G12D): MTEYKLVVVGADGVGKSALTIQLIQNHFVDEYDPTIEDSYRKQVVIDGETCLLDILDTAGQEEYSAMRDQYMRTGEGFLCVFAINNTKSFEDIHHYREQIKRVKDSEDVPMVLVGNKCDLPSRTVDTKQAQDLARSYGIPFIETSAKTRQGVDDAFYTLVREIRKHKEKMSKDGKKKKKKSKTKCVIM
Assay: Ras GTP binding domain inhibition assay (labeled GTP)
Conditions: at 20 μM; read-out: KRas G12D % Inh.
endpoint: inhibition at 20 µM

>>> result("CC(C)COc1ccc(-c2c(-c3ccccc3)sc3c(O)nc(-c4nccn4C)nc23)cn1 [drawing 3905]")
"51 to 75%"
>>> result("COCCNc1nc(-c2nccn2C)nc2sc(-c3ccccc3)c(-c3ccncc3)c12 [drawing 3914]")
"51 to 75%"
>>> result("Nc1nc(-c2ccccn2)nc2ccsc12 [drawing 3706]")
"1 to 25%"
>>> result("Oc1nc(-c2ccccn2)nc2c(-c3cccc4c3OCO4)csc12 [drawing 3721]")
"25 to 50%"
>>> result("Oc1nc(-c2ccccn2)nc2c(-c3ccc(OC(F)F)cc3F)csc12 [drawing 3748]")
"51 to 75%"
>>> result("CN(C)CCOc1cccc(-c2csc3c(O)nc(-c4ccccn4)nc23)c1 [drawing 3811]")
"76 to 100%"
>>> result("COc1cnc(-c2cnc[nH]2)nc1O [drawing 3834]")
"51 to 75%"
>>> result("Cc1sc2c(O)nc(-c3ccccn3)nc2c1-c1ccncc1 [drawing 3816]")
"51 to 75%"
>>> result("O=C(c1csc2c(O)nc(-c3ccccn3)nc12)N1CCC(c2cccc(O)c2)C1 (stereo not drawn) [drawing 3712]")
"76 to 100%"

====

System: TNFα production in RAW 264.7 macrophage cell line
Assay: Mouse TNF alpha quantification assay (LPS-stimulated macrophages, ELISA)
Type: cell-based
Details: RAW264.7, RAW 264.7 murine leukemia virus transformed macrophage cell lines, LPS stimulation, read-out: TNF-α % Inhibition at 30 μM
Below: a set of entries, each annotated with reported inhibition at 30 µM.
endpoint: inhibition at 30 µM (%)

>>> quantitative_result("Oc1nc(-c2ccccn2)nc2c(-c3ccc4c(c3)CCCO4)csc12 [drawing 2294]")
0
>>> quantitative_result("Nc1nc(O)c2scc(-c3ccccc3)c2n1 [drawing 2118]")
0
>>> quantitative_result("Cn1ccnc1-c1nc(O)c2scc(-c3cccc(Cl)c3)c2n1 [drawing 2444]")
0
>>> quantitative_result("O=C(c1csc2c(O)nc(-c3ccccn3)nc12)N1CCN(c2ccc(F)cc2)CC1 [drawing 2180]")
0
>>> quantitative_result("CC(OCc1ccccc1)C(=O)Nc1nnc(-c2ccccn2)[nH]1 (stereo not drawn) [drawing 1971]")
0
>>> quantitative_result("Nc1nc(O)c2sc(-c3cccc(C(=O)NCc4ncc[nH]4)c3)cc2n1 [drawing 2372]")
0
>>> quantitative_result("CC(C)(C(=O)Nc1ccnc(-c2ccccn2)n1)c1ccc(C#N)cc1 [drawing 2177]")
0
>>> quantitative_result("O=C(c1csc2c(O)nc(-c3ccccn3)nc12)N1CCN(c2ccc(F)cc2F)CC1 [drawing 2185]")
0

====

Below: a set of entries, each annotated with reported inhibition at 20 µM.
Target: KRas G12D/Q61H double mutant (Homo sapiens (Human), UniProt P01116, G12D/Q61H)
Assay: Ras GTP binding domain inhibition assay (labeled GTP)
Conditions: 20 μM compound; KRas G12D/Q61H double mutant; read-out: % Inhibition at 20 μM of K-Ras mutant and wild-type protein, KRas G12D Q61H
endpoint: inhibition at 20 µM

>>> result("COC(=O)c1ccc(CN2CCN(c3cccc(C(F)(F)F)c3)CC2)cc1")
"25 to 50%"
>>> result("CCOc1ccccc1N1CC(c2nc3ccccc3n2CCC2CCCCC2)CC1=O (centres unmarked)")
"25 to 50%"
>>> result("CCc1ccc(C(=O)c2cc3ccccc3o2)s1")
"25 to 50%"
>>> result("COC(=O)c1c(C)sc2c(N)nc(-c3ccccn3)nc12 [drawing 3499]")
"51 to 75%"
>>> result("CCOc1ccc(CSc2nnc(-c3ccco3)n2-c2ccccc2)cc1OCC")
"25 to 50%"
>>> result("Cc1ccc2c(c1)C1CN(C)CCC1N2Sc1ccc(Cl)cc1 (centres unmarked)")
"25 to 50%"
>>> result("COCCNc1ccc([N+](=O)[O-])cc1C(=O)OCCOc1ccccc1")
"25 to 50%"
>>> result("CN(Cc1ccccc1C#N)Cc1ccccc1N1CCCCC1")
"25 to 50%"
>>> result("C=CCOc1ccc(C(=O)c2ccccc2)c(OCC(=O)NC2(C#N)CCCC2)c1")
"25 to 50%"
>>> result("Oc1cccc(-c2csc3c(O)nc(-c4ccccn4)nc23)n1 [drawing 3498]")
"51 to 75%"
>>> result("COc1cnc(-c2cn(C)cn2)nc1O [drawing 3496]")
"51 to 75%"

====

Below: a set of entries, each annotated with reported inhibition at 20 µM.
Target: KRas G12D/Q61H double mutant (Homo sapiens (Human), UniProt P01116, G12D/Q61H)
Assay: Ras GTP binding domain inhibition assay (labeled GTP)
Conditions: 20 μM compound; KRas G12D/Q61H double mutant; read-out: % Inhibition at 20 μM of K-Ras mutant and wild-type protein, KRas G12D Q61H
endpoint: inhibition at 20 µM

>>> result("CCC(C)Sc1ccc(NC(=O)c2ccccc2OCCOC)c(C(F)(F)F)c1 (centres unmarked)")
"25 to 50%"
>>> result("CC(C)(C)OC(=O)N1CCCN1c1nc(-c2cccs2)nc2ccccc12")
"25 to 50%"
>>> result("CC(O)(c1ccc(OCc2csc(Cc3ccccc3)n2)cc1)C(F)(F)F (centres unmarked)")
"25 to 50%"
>>> result("CCCn1c(-c2cccc(C)c2)nnc1S(=O)(=O)Cc1csc(-c2cccc(OC)c2)n1")
"51 to 75%"
>>> result("O=C(CSCc1cccc(F)c1)Nc1ccc(-c2ccccc2)cc1")
"25 to 50%"
>>> result("COCCCN(C(=O)c1ccc(-n2nc(C)c(Cl)c2C)cc1)S(=O)(=O)c1ccc(OC)cc1")
"25 to 50%"
>>> result("COc1ccc(-c2cc3nc(-c4ccccn4)nc(O)c3s2)cc1 [drawing 3563]")
"1 to 25%"
>>> result("Cc1ccc(CC(C#N)c2c(C#N)c(N)nc(N3CCCCC3)c2C#N)cc1 (centres unmarked)")
"1 to 25%"
>>> result("O=C(COCC(F)(F)F)Nc1nnc(-c2ccccn2)[nH]1")
"25 to 50%"
>>> result("CC[S+]([O-])c1ccccc1C(=O)OCc1ccc(-c2ccccc2C#N)cc1 (centres unmarked)")
"25 to 50%"
>>> result("CC(C)(C)c1noc(COc2ccc(C(=O)c3ccc(F)cc3)cc2)n1")
"25 to 50%"
>>> result("Oc1nc(-c2ccccn2)nc2c(Br)c(-c3ccccc3)sc12 [drawing 3553]")
"0%"
>>> result("Cc1cc2oc(=O)cc(CN(C)Cc3c(C)nn(Cc4ccccc4Cl)c3C)c2cc1C")
"25 to 50%"
>>> result("CCc1cc(N2CC(Cc3cc(OC)cc(OC)c3)C2)nc(-c2ccncc2)n1")
"1 to 25%"
>>> result("Oc1nc(-c2ccccn2)nc2c(CC3CCNC3)csc12 (centres unmarked) [drawing 3526]")
"51 to 75%"
>>> result("CCN1CCN(Cc2ccc(NC(=O)c3cc(OC)c(OC)cc3OC)cc2)CC1")
"1 to 25%"
>>> result("CC1CN(C(=O)CSc2nnc(Cc3cccc4ccccc34)n2C2CCCCC2)CC(C)O1 (centres unmarked)")
"25 to 50%"
>>> result("CCc1oc2ccccc2c1CN(C)C(=O)c1cccc(OCc2c(C)noc2C)c1")
"25 to 50%"
>>> result("Oc1nc(-c2ccccn2)nc2c(-c3ccc(Cl)c(Cl)c3)csc12 [drawing 3463]")
"25 to 50%"
>>> result("COC(=O)C(NCc1ccc(-c2ccc(Cl)cc2)o1)c1ccccc1 (centres unmarked)")
"25 to 50%"
>>> result("CC(C)c1nn(C)cc1-c1csc2c(O)nc(-c3ccccn3)nc12 [drawing 3501]")
"51 to 75%"
>>> result("COc1cnc(CNC(=O)c2csc3c(O)nc(-c4ccccn4)nc23)[nH]c1=O [drawing 3520]")
"1 to 25%"
>>> result("CCN(CC)S(=O)(=O)c1ccc(C(C)NCc2ccc(Cl)s2)cc1 (centres unmarked)")
"25 to 50%"
>>> result("O=C(C1CCN(c2ccccc2[N+](=O)[O-])CC1)N1CCCC1C1CCCCC1 (centres unmarked)")
"1 to 25%"
>>> result("C#CCN(Cc1ccc(C)cc1)c1ccc(C#N)cc1[N+](=O)[O-]")
"1 to 25%"
>>> result("NC(=O)C1CCCN1C(=O)c1cccc(-c2cc3nc(N)nc(O)c3s2)c1 (centres unmarked) [drawing 3544]")
"0%"
>>> result("Cc1cc2nc(-c3ccccn3)nc(O)c2s1 [drawing 3472]")
"51 to 75%"
>>> result("Oc1nc(-c2ccccn2)nc2cc(-c3ccc(-c4ccccc4)cc3)sc12 [drawing 3559]")
"1 to 25%"
>>> result("CC(C)=CC1C(C(=O)NCc2ccc(OCC(F)(F)F)nc2)C1(C)C (centres unmarked)")
"25 to 50%"
>>> result("CCOc1ccc(S(=O)(=O)N(CC(=O)N2CCCc3ccccc32)Cc2ccco2)cc1")
"25 to 50%"
>>> result("COc1cnc(CNC(=O)c2c(C)sc3c(O)nc(-c4ccccn4)nc23)[nH]c1=O [drawing 3523]")
"0%"
>>> result("COc1ccccc1CN(Cc1coc(-c2ccc(F)cc2)n1)Cc1cccs1")
"1 to 25%"
>>> result("CCN(C(=O)c1cnn(-c2ccccc2)n1)c1ccccc1")
"1 to 25%"
>>> result("Oc1nc(-c2ccccn2)nc2c(CC3CCCNC3)csc12 (centres unmarked) [drawing 3488]")
"25 to 50%"
>>> result("CCC(C)c1ccc(S(=O)(=O)NC(c2ccccc2)c2ccccn2)cc1 (centres unmarked)")
"25 to 50%"
>>> result("COc1cnc(-c2ccccn2)nc1O [drawing 3469]")
"51 to 75%"
>>> result("O=C(NN(Cc1ccccc1)Cc1ccccc1)c1n[nH]c(=O)c2ccccc12")
"25 to 50%"
>>> result("Oc1nc(-c2ccccn2)nc2c(-c3cc(CN4CCCC4)ccc3F)csc12 [drawing 3502]")
"51 to 75%"
>>> result("COC(C)c1nc(CN(Cc2ccc(C#N)cc2)Cc2cccc(F)c2)cs1 (centres unmarked)")
"25 to 50%"
>>> result("COc1cnc(CNC(=O)c2sc3c(O)nc(-c4ccccn4)nc3c2C)[nH]c1=O [drawing 3524]")
"1 to 25%"
>>> result("CC1CC1COC(=O)c1sccc1S(=O)(=O)N1CCSCC1 (centres unmarked)")
"25 to 50%"
